GI50 for assorted compounds
- System: SF-268
- protocol description: NCI tumour cell line growth inhibition, 48 h
Activity calls are given as the source filed them. No stated cut-off is given here; in the data, active = GI50 up to about 1.1 µM and inactive = higher.

The examples below pair each entry with its known result.
compound: CCOC(=O)C(c1c[nH]c2ccccc12)(c1c[nH]c2ccccc12)c1c[nH]c2ccccc12
GI50: 32.8 µM (inactive)

compound: O=C(c1c2c(cc3c1CC1(Cc4cc5c(cc4C1)CCCC5)C3)CCCC2)C(Br)Br
GI50: 14.6 µM (inactive)

compound: CN(/N=C/c1ccccn1)C1=NCCCCN1
GI50: > 100 µM (inactive)

Quick one: GI50 for CC(Nc1ccc(S(=O)(=O)NC(=N)N)cc1)c1c2ccccc2nc2ccccc12 (stereo not drawn) ?
31 µM (inactive)

Quick one: GI50 for CN(C)/C=[N+]1/[C@@H](Cc2ccccc2)C(=O)O[B-]1(F)c1ccccc1 (stereo partly drawn) ?
> 100 µM (inactive)

Quick one: GI50 for CCOC(=O)CCC(NC(=O)c1ccc(Nc2cnc3ccc(C(F)(F)F)cc3n2)cc1)C(=O)OCC (stereo not drawn) ?
15 µM (inactive)

Quick one: GI50 for N#Cc1nc(-c2cccnc2)oc1N ?
> 100 µM (inactive)

Quick one: GI50 for COc1cc2c(cc1OC(=O)CC(C)O)C1C(OC2=O)C(OC(C)=O)C=C2CCN(C)[C@H]21 (stereo partly drawn) ?
46.3 µM (inactive)

Quick one: GI50 for Cc1ccc2c(n1)C(=O)c1cc(C)c(C)cc1C2=O ?
49.8 µM (inactive)

Quick one: GI50 for COc1cc(CNc2nc3ccccc3nc2-c2cccs2)cc(OC)c1OC ?
> 100 µM (inactive)

Quick one: GI50 for C=C1C(O)C2(O)OCC34C(CC5C(C)=CC(=O)C(O)C5(C)C23)OC(=O)C(OC(=O)C/C=C(\C)CCCCC)C14 (stereo not drawn) ?
0.0152 µM (active)

Quick one: GI50 for O=C1/C(=C\c2c(-c3ccccc3)[nH]n(-c3ccccc3)c2=O)C(c2ccccc2)=NN1c1ccccc1 ?
> 100 µM (inactive)

Quick one: GI50 for CC1=C(/C=C/C(=O)O)C(C)(C)CCC1 ?
> 100 µM (inactive)

Quick one: GI50 for C=CC1(C)CCC2C(=CCC3C2(C)CC(O)C(O)C3(C)COC2OC(CO)C(O)C(O)C2O)C1 (stereo not drawn) ?
> 100 µM (inactive)

Quick one: GI50 for CN(C)CCNC(=O)c1cccc2c(NC(CS)C(=O)O)c3ccccc3[n+](C)c12 (stereo not drawn) ?
23.6 µM (inactive)

Quick one: GI50 for COc1ccc([N+]2=NC(c3ccc([N+](=O)[O-])cc3)=NN(c3ccccc3)C2)cc1.[O-][Cl+3]([O-])([O-])[O-] ?
> 100 µM (inactive)
